system: SF-539 CNS; assay: NCI tumour cell line growth inhibition, 48 h
Item-by-item account of TGI
MEASUREMENT_LABEL: TGI

                                    compound  measurement_label  recorded_result
 0  Nc1nc2c(nnn2C2CC(O)C(CO)O2)c(=O)[nH]1 (configuration not stated)                TGI          > 41 µM
 1              OCCCNc1nc(=S)[nH]c2[nH]ncc12                TGI         > 100 µM
 2  O=C(O)/C=C(\c1nc2ccc([N+](=O)[O-])cc2[nH]1)c1cc(Cl)ccc1O                TGI          17.8 µM
 3  COc1ccc(-c2onc(N)c2-c2cc(OC)c3c(c2)OCO3)cc1                TGI          11.8 µM
 4                  O=C1CSSCC(=O)Nc2ccccc2N1                TGI         > 100 µM
 5  COc1ccc(CC2CCc3nc(N)nc(N)c3C2)cc1OC (configuration not stated)                TGI        > 40.5 µM
 6  CCOC(=O)C1(Cc2ccccc2)C=CN(C(=O)c2ccccc2)C=C1                TGI         > 100 µM
 7            COc1ccc2c(c1)C(=O)Cc1ccccc1CC2                TGI         > 100 µM
 8  CC(=O)N(C(C)=O)n1c(Cc2ccc(Cl)cc2)n[nH]c1=O                TGI         > 100 µM
 9              O=C(O)c1ccccc1/C=N/NC1=NCCN1                TGI         > 100 µM
10  CCN(CC)C(c1ccc(N(C)C)cc1)C(c1ccc(N(C)C)cc1)N(CC)CC (configuration not stated)                TGI          > 73 µM
11  O=C1c2ccccc2C(=O)c2c1cc(S(=O)(=O)O)c(O)c2O                TGI         > 100 µM
